# Test system: NCI/ADR-RES ovarian
# Test Summary: NCI tumour cell line growth inhibition, 48 h; in the data active = GI50 below about 0.43 µM; inactive = the rest
A correct response names exactly one class from yes (active), no (inactive)

### Prompt Entry "CN(c1ccc(NC(=O)Nc2ccc(OC(F)(F)F)cc2)cc1)c1ccnc(Nc2cccc(S(N)(=O)=O)c2)n1" : call = ?
### Response no

### Prompt How did this test come out for "CN1CCN(c2nc(NCCCCNc3ccnc4cc(Cl)ccc34)c3ccccc3n2)CC1" ?
### Response no

### Prompt Per the records of this test, what outcome belongs to "C[C@]12CC[C@@H]3c4ccc(O)cc4CC[C@H]3[C@@H]1CC[C@@H]2NS(=O)(=O)c1cccc(C(F)(F)F)c1" ?
### Response no

### Prompt Record lookup: outcome of this test for CCN(CCNc1ccc(C)c2sc3cc(Cl)ccc3c(=O)c12)CC(C)O (centres undefined) ?
### Response no

### Prompt Query: recorded result category for "C=C(C)[C@@H]1CC[C@]2(C(=O)NCCNCCNCCN)CC[C@]3(C)[C@H](CC[C@@H]4[C@@]5(C)CC[C@H](O)C(C)(C)[C@@H]5CC[C@]43C)[C@@H]12" in this test
### Response no

### Prompt // param item: "COc1ccc(C(=O)/C=C/c2c(C(F)(F)F)nc3sccn23)cc1OC" ; yields the recorded call
### Response no

### Prompt State the result this test recorded for "CC(C)C[C@H](NC(=O)[C@H]1O[C@@H]1C(=O)O)C(=O)NCCc1ccc(O)cc1" .
### Response no

### Prompt Write down the call the test reported for this compound. Item: "O=C1c2ccc3c4c5ccc(c24)C(=O)N1CCCOCCCCOCCCNCc1ccc(cc1)CNCCCOCCCCOCCCN(C3=O)C5=O"
### Response no

### Prompt Please state the recorded outcome for this compound: "COc1ccc(C/C(C)=C(\c2ccc(OCCN3CCOCC3)cc2)c2ccc(OC(=O)Cc3ccccc3)cc2)cc1"
### Response no

### Prompt Please let me know the test result on file for "CCCCCCC#Cc1ccccc1C#CCO" .
### Response no

### Prompt What did this assay record as the result for "CS(=O)(=O)c1ccc(-c2cnc(N)c(C(=O)Nc3ccccc3)n2)cc1" ?
### Response no

### Prompt Check the results log: what was the call for "COc1ccc(-c2cnnn2-c2cc(OC)c3c(c2)OCO3)cc1" ?
### Response yes

### Prompt In this assay, the call recorded for "C=CCNCCCN1C(=O)c2ccc3c4c(ccc(c24)C1=O)C(=O)N(CCCNCC=C)C3=O" was what?
### Response no

### Prompt Give the logged outcome of this assay for the following compound: "N#Cc1c(N)nc(N2CCOCC2)c(C#N)c1-c1ccc(Cl)cc1"
### Response no

### Prompt // param item: CC1=CCC(OC(=O)C(C)(C)CCC(O)(C(=O)OC2(C(C)C)CCC3(C)OC3C2)C(C)C)(C(C)C)CC1 (centres undefined) ; yields the recorded call
### Response no

### Prompt # fetch the recorded call for "CC(C)[C@@]12C[C@@H](OC(=O)COC(=O)/C=C/c3ccccc3)[C@@](C)(O1)[C@@H]1CC[C@@H](C)[C@H]1[C@@H]2OC(=O)/C=C/c1ccccc1" here
### Response no

### Prompt Record request — test call for "NC1=C(Br)C(=O)c2ncccc2C1=O"
### Response no

### Prompt I'd appreciate the recorded outcome for "N=c1c2c(-c3ccccc3)c(-c3ccccc3)n(Cc3ccccc3)c2ncn1CCCO" from this test.
### Response no

### Prompt Test call, this compound: "NC(=NC1CCCCCCC1)c1ccc(N2CCN(c3ccc(C(N)=NC4CCCCCCC4)cc3)CC2)cc1"
### Response no

Source: PubChem BioAssay (NCI)
